# PROTOCOL DETAILS: Determination of logD (1-octanol / phosphate buffer pH 7.4)
# Assay type: physicochemical
# SETTINGS: 1-octanol/phosphate buffer, pH 7.4, pH 7.4, 1-octanol/phosphate buffer; read-out: Log D, pH 7.4
REPORTED METRIC: logD

Sample records with logD:
Cc1nsc(/C=C/C(=O)N2CCN(c3nc(OCC45CCCN4CCC5)nc4c(F)c(-c5cccc6ccc(F)c(Cl)c56)ncc34)C[C@@H]2CC#N)n1 | 2.78
CO[C@H]1CCN(C/C=C/C(=O)N2CCN(c3nc(OC[C@@]45CCCN4C[C@H](F)C5)nc4c(F)c(-c5cccc(Cl)c5C5CC5)ncc34)C[C@@H]2CC#N)C1 | 3.23

A. COCCN(C)C/C=C/C(=O)N1CCN(c2nc(OC[C@@]34CCCN3C[C@H](F)C4)nc3c(F)c(-c4cccc5cccc(Cl)c45)ncc23)C[C@@H]1CC#N
B. CC(C)c1noc(/C=C/C(=O)N2CCN(c3nc(OC[C@@]45CCCN4C[C@H](F)C5)nc4c3CCN(c3cccc5ccc(F)c(Cl)c35)C4)C[C@@H]2CC#N)n1
C. N#CC[C@H]1CN(c2nc(OC[C@@]34CCCN3C[C@H](F)C4)nc3c(F)c(-c4nc(N)cc5cccc(F)c45)ncc23)CCN1C(=O)/C=C/CN1CCOCC1
Lookup: List from greatest to least logD. Present the labels in the sequence the task asks for.
Found: B, A, C
(B: 4.56, A: 3.05, C: 1.08)
